Origin of the recorded values: ChEMBL document CHEMBL5291721

# ASSAYED_SYSTEM: 5-hydroxytryptamine receptor 1A (Homo sapiens); also: assay procedure not described here
# Sequence (P08908 whole entry): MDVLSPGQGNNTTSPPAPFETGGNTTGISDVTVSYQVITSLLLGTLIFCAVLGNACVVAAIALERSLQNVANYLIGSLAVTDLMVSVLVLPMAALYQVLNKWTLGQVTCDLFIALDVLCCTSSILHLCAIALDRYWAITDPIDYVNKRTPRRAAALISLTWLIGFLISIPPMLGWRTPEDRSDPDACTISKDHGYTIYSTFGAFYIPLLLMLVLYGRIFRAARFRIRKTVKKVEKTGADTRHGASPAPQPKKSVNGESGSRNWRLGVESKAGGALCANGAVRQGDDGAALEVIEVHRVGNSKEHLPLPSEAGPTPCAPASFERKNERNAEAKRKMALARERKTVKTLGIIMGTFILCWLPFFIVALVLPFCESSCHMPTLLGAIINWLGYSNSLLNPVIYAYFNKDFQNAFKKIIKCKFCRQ
# Type: functional, cell-based
Measured AC50 by item

Guide cases for AC50, answers given:
{"COMPOUND": "C[C@@H](O)[C@H]1C(=O)N2C(C(=O)O)=C(S[C@@H]3CN[C@H](C(=O)N(C)C)C3)[C@H](C)[C@H]12 [MEROPENEM]", "RESULT": "> 300 µM"}
{"COMPOUND": "C[C@@H]1O[C@@H](O[C@@H]2C=C3CC[C@@H]4[C@H](CC[C@]5(C)[C@@H](c6ccc(=O)oc6)CC[C@]45O)[C@@]3(C)CC2)[C@H](O)[C@H](O)[C@H]1O [PROSCILLARIDIN]", "RESULT": "> 30 µM"}
{"COMPOUND": "CC(CC1c2ccccc2CCc2ccccc21)CN(C)C (configuration not stated) [BUTRIPTYLINE]", "RESULT": "> 30 µM"}
{"COMPOUND": "CN1[C@@H]2CC[C@H]1C[C@@H](OC(c1ccccc1)c1ccccc1)C2 [BENZTROPINE]", "RESULT": "> 30 µM"}
{"COMPOUND": "Nc1nc(Cl)nc2c1ncn2[C@H]1C[C@H](O)[C@@H](CO)O1 [CLADRIBINE]", "RESULT": "> 30 µM"}
{"COMPOUND": "CN(C)/N=N/c1[nH]cnc1C(N)=O [DACARBAZINE]", "RESULT": "> 10 µM"}
{"COMPOUND": "C[C@H]1COc2c(C3(N)CC3)c(F)cc3c(=O)c(C(=O)O)cn1c23 [PAZUFLOXACIN]", "RESULT": "> 10 µM"}
{"COMPOUND": "Clc1ccc(C(c2ccccc2Cl)C(Cl)Cl)cc1 (configuration not stated) [MITOTANE]", "RESULT": "> 10 µM"}

For the next question, use this compound.
Lookup: Query the reported AC50 for 5-hydroxytryptamine receptor 1A (Homo sapiens); item: CNC1Cc2ccccc2N(C)c2ccccc21 (configuration not stated) [METAPRAMINE]
Found: > 30 µM
